- target desc: E3 ubiquitin-protein ligase Mdm2/Epidermal growth factor receptor (Homo sapiens, UniProt Q00987+P00533, T790M/L858M)
- Sequence (P00533 whole entry, looked up, stated change not applied): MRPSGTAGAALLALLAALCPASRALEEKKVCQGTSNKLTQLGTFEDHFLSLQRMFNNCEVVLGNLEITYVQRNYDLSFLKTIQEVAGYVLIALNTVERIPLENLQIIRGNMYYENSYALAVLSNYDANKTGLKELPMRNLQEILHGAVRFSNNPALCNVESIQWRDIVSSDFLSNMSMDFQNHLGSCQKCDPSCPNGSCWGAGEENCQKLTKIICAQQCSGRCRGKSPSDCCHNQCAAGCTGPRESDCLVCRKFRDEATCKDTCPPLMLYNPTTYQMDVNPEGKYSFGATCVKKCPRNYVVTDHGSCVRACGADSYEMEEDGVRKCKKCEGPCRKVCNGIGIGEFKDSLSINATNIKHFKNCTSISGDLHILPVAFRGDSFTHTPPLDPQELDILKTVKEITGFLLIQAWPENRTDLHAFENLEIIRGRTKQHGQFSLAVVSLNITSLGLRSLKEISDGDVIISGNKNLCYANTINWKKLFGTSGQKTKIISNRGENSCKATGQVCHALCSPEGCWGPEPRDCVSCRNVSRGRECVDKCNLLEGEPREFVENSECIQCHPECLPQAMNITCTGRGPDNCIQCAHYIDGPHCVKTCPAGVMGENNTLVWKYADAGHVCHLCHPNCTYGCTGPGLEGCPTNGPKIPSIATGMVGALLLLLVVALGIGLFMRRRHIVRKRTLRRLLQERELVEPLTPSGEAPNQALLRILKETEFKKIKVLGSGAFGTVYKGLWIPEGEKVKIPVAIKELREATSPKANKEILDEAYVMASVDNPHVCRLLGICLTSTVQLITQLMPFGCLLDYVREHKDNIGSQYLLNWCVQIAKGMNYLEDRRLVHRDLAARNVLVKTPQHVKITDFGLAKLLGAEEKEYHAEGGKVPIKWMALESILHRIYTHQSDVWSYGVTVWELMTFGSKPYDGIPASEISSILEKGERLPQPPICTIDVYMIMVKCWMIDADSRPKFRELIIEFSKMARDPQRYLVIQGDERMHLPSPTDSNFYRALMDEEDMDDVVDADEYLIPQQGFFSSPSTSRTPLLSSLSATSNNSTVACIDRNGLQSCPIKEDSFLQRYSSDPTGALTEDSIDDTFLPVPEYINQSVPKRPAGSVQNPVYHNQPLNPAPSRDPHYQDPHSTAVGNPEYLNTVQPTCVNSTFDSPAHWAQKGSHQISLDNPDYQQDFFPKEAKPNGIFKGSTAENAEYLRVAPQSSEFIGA
- Sequence (Q00987 whole entry, looked up, stated change not applied): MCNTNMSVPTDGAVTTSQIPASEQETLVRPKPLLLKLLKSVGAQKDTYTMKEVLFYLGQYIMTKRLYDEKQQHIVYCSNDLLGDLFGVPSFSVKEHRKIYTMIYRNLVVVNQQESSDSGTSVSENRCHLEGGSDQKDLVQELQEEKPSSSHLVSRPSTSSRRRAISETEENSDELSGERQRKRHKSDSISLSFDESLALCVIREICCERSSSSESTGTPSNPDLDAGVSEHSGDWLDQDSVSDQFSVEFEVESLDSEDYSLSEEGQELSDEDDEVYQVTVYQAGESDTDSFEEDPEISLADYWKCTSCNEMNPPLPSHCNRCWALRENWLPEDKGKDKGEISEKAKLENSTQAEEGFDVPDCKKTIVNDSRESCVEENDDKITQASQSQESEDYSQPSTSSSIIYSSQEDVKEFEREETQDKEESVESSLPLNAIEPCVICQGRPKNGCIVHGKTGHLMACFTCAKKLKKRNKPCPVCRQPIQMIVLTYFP
- assay overview: Protac activity at MDM2/EGFR L858R/T790M mutant in human NCI-H1975 cells assessed as EGFR degradation by Western blot analysis
- Assay type: cell-based
Below, each entry is listed with its recorded DC50.
readout: DC50 (nM)

| smiles notation | readout | observed value |
| --- | --- | --- |
| C=CC(=O)Nc1cccc(-n2c(=O)cc(C)c3cnc(Nc4ccc(N5CCN(C(=O)CCCCCCCCCCCNC(=O)c6ccc(NC(=O)[C@@H]7N[C@@H](CC(C)(C)C)[C@](C#N)(c8ccc(Cl)cc8F)[C@H]7c7cccc(Cl)c7F)c(OC)c6)CC5)cc4OC)nc32)c1 | DC50 | 264 |
| C=CC(=O)Nc1cccc(-n2c(=O)cc(C)c3cnc(Nc4ccc(N5CCN(C(=O)CCCCCCCNC(=O)c6ccc(NC(=O)[C@@H]7N[C@@H](CC(C)(C)C)[C@](C#N)(c8ccc(Cl)cc8F)[C@H]7c7cccc(Cl)c7F)c(OC)c6)CC5)cc4OC)nc32)c1 | DC50 | 253 |
| C=CC(=O)Nc1cccc(-n2c(=O)cc(C)c3cnc(Nc4ccc(N5CCN(C(=O)CCCCCCCCCNC(=O)c6ccc(NC(=O)[C@@H]7N[C@@H](CC(C)(C)C)[C@](C#N)(c8ccc(Cl)cc8F)[C@H]7c7cccc(Cl)c7F)c(OC)c6)CC5)cc4OC)nc32)c1 | DC50 | 313 |
| C=CC(=O)Nc1cccc(-n2c(=O)cc(C)c3cnc(Nc4ccc(N5CCN(C(=O)CCCCCNC(=O)c6ccc(NC(=O)[C@@H]7N[C@@H](CC(C)(C)C)[C@](C#N)(c8ccc(Cl)cc8F)[C@H]7c7cccc(Cl)c7F)c(OC)c6)CC5)cc4OC)nc32)c1 | DC50 | 77 |
